Origin of values: paper PMC5928113

Biological target: His6x-eIF4E (Saccharomyces cerevisiae) (UniProt P07260)
Sequence: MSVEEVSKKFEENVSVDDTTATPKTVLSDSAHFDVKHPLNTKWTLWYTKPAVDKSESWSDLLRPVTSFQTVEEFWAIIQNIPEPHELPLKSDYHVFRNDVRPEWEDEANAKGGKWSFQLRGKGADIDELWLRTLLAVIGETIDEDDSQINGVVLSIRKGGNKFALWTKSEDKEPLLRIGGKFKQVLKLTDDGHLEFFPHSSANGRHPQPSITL
Test: MST
Conditions: 5' m7GpppG cap (Vaccinia Capping System); Buffer A: 10 mM sodium phosphate pH 7.5, 100 mM NaCl, 2.5 mM MgCl2, 1 mM DTT, 0.05% NP40; MST at 25 C (proteins for capped RNA MST RED-tris-NTA labeled in …)
observation type: Kd (nM)
Provide the reading as a plain figure in nM.

Dear colleague, I am looking for the recorded Kd of the following sequence: GGGAACAAAAGCUGGUAAUCAAGAAUUACAAGAAACAAAAAUUCAAGUAAAUAACAGAUAAUAC [capped SSA1 5'UTR RNA, 64 nt] 226
